# Target: mouse ACVR2A (mouse, UniProt P27038 20-135, limits assumed); also: test concentration or dose not given here
# Sequence (P27038 20-135 limits assumed): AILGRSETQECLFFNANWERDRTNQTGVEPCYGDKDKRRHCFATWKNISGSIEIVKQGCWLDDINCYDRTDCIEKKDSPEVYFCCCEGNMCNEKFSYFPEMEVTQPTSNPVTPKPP
# Protocol: ELISA
Property label: optical density (OD)
Please respond with the number in OD and leave the unit unwritten.

INSERT INTO measurements (binder, numeric_readout) VALUES
  ('368_G07 (antibody, V domains shown, VH and VL only) VH: EVQLLESGGGLVQPGGSLRLSCAASGFTFSSYSMHWVRQAPGKGLEWVSSINYNGGYTSYADSVKGRFTISRDNSKNTLYLQMNSLRAEDTAVYYCARSATWHDTHLDYWGQGTLVTVSS VL: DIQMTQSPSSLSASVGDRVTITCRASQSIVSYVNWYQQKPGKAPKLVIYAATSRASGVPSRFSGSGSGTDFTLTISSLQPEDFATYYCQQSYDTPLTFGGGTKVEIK', 2.05);

# next binder below
IN: Report optical density for 374_D11 (antibody, V domains shown, VH and VL only) VH: EVQLLESGGGLVQPGGSLRLSCAASGFTFDSYGMNWVRQAPGKGLEWVSNINYNSGYTGYADSVKGRFTISRDNSKNTLYLQMNSLRAEDTAVYYCARSATWHDTHLDYWGQGTLVTVSS VL: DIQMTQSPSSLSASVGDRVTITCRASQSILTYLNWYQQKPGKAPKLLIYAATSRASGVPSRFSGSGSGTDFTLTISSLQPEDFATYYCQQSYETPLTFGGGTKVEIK
OUT: 3.58

// provenance: patent US20210380703A1
